study_system: Pro-neuregulin-1, membrane-bound isoform (Homo sapiens) (UniProt Q02297)
Sequence (Q02297 whole entry, looked up, canonical isoform): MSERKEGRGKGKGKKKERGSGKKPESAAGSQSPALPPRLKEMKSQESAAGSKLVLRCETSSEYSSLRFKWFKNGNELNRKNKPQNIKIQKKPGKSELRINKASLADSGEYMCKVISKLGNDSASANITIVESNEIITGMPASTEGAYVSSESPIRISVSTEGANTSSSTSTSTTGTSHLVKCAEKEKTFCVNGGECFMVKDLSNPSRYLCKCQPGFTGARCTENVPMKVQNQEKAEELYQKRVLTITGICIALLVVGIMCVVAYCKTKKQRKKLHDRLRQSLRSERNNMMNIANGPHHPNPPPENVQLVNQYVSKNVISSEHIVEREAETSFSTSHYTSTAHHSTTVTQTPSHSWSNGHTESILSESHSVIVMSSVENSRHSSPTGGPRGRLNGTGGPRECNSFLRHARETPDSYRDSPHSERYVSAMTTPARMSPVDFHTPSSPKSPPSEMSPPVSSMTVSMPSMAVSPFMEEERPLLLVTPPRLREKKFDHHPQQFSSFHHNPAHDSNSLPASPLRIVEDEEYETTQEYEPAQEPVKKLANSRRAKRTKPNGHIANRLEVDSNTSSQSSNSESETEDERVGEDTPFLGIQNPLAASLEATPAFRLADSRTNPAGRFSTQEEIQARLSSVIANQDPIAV
assay_comment: small molecules binding neuregulin-1 protein – biochemical, small-molecule microarray, fluorescence 635/667, psychiatric disease protein project, primary screen (AID 1075);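 further: score combines 667 nm spot fluorescence with signal to noise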
conditions: NRG1 binding, 635 nm fluorescence, higher = more signal
Label true when composite z-score is at or above 0.5; otherwise label false.

| compound | answer_label |
| --- | --- |
| C#CCN(C/C=C/c1ccccc1)[C@H](CO)c1ccccc1 | false |
| C=CCN1C(=O)[C@]2(Cc3ccccc3)N=C(c3ccc(OCCCO)cc3)O[C@@H]2c2ccccc21 | true |
| COCCCNC(=O)[C@]1(Cc2ccccc2)N=C(c2ccc(OCCCO)cc2)O[C@@H]1c1ccccc1CN=[N+]=[N-] | true |
| CN1C(=O)C2C=CC(C(O)c3ccc(F)cc3)N(N(c3ccccc3)c3ccccc3)C2C1=O (stereo not drawn) | true |
| COC(=O)C[C@H]1O[C@@H](CCc2ccccc2)[C@@H](C)[C@@H]1[Si](C)(C)c1ccc(OC)cc1 | false |
| CC[C@@H]1C=C(C(=O)O)[C@H](c2cccc3ccccc23)N1S(=O)(=O)c1ccc(C)cc1 | true |
| COC(=O)[C@]1(Cc2ccccc2)N=C(c2ccc(OCCCO)cc2)O[C@@H]1c1ccccc1N=[N+]=[N-] | false |
| O=C1C[C@@](C(=O)NCc2ccccc2)(c2ccc([N+](=O)[O-])cc2)[C@@H](c2ccc(CO)cc2)N1CC12CC3CC(CC(C3)C1)C2 | true |
| CC(c1ccccc1)C(O)C1C=CC2C(=O)N(C)C(=O)C2N1NC(=O)OC(C)(C)C (stereo not drawn) | true |
| COc1ccc([Si](C)(C)[C@@H]2[C@@H](CCO)O[C@]3(C(=O)N(Cc4cccc(N5CCOC5=O)c4)c4ccccc43)[C@H]2C)cc1 | true |
| O=C1O[C@H](c2ccccc2)[C@H](c2ccccc2)N2[C@H]1[C@@H](C(=O)NC[C@H](O)c1ccccc1)[C@]1(C(=O)Nc3ccc(C#CC4=CCCCC4)cc31)[C@H]2c1ccccc1OCCO | false |
| CO[C@H]1O[C@H](CO)[C@@H](OC(=O)Nc2cccc(F)c2)[C@H](OC(=O)Nc2ccccc2)[C@H]1OC(=O)Nc1ccccc1 | true |
| CN(C)CCCCCCNC(=O)[C@@H]1C[C@@H]2C(=O)N[C@@H](CCCC[N+](C)(C)C)C(=O)N2[C@@H]1c1ccc(O)cc1 | false |
| C=CCOC(=O)[C@H]1[C@@H]2C(=O)O[C@@H](c3ccccc3)[C@@H](c3ccccc3)N2[C@@H](c2ccc(OCCOC(=O)[C@@H]3C[C@@H]4C(=O)N5CCC[C@H]5C(=O)N4[C@@H]3c3cccc(OCCO)c3)cc2)[C@]12C(=O)Nc1ccc(I)cc12 | true |
| CO[C@H]1O[C@H](CO)[C@@H](OC(=O)Nc2ccccc2-c2ccccc2)[C@H](OC(=O)Nc2ccccc2-c2ccccc2)[C@@H]1OC(=O)Nc1ccccc1-c1ccccc1 | true |
| CCCCC(=C=CC[C@@H](O)c1ccc(CO)o1)CCO | false |
| COCCOC(=O)N1C(=O)[C@@]2(c3cc(C#CCCO)ccc31)[C@H](c1ccc(OCCO)cc1)N1[C@H](c3ccccc3)[C@H](c3ccccc3)OC(=O)[C@H]1[C@@H]2C(N)=O | true |
| N#Cc1ccc(C(O)C2C=CC3C(=O)N(c4ccccc4)C(=O)C3N2Nc2ccccc2F)cc1 (stereo not drawn) | true |
| CCCCN1CC=CC23O[C@@H]4C=CCCOC(=O)C4[C@H]2C(=O)N(CCCCCO)[C@@H]3C1=O (stereo partly drawn) | false |
| O=C1O[C@@H](c2ccccc2)[C@@H](c2ccccc2)N2[C@@H](c3ccccc3OCCO)[C@]3(C(=O)Nc4ccccc43)[C@@H](C(=O)O)[C@H]12 | true |
| O=C1O[C@@H](c2ccccc2)[C@@H](c2ccccc2)N2[C@@H](c3ccccc3OCCO)[C@]3(C(=O)Nc4ccc(C#CC5(O)CCCCCC5)cc43)[C@@H](C(=O)N3CCN(c4ncccn4)CC3)[C@H]12 | true |
| O[C@@H](Cc1ccccc1)[C@@H](/C=C/C1CC1)NCc1cccc(Cl)c1 | false |
| COc1cc2c(cc1OC)CN(C(=O)[C@H]1[C@@H]3C(=O)O[C@@H](c4ccccc4)[C@@H](c4ccccc4)N3[C@@H](c3ccccc3OCCO)[C@]13C(=O)Nc1ccc(C#CCCO)cc13)CC2 | true |
| COC(=O)[C@@]1(Cc2ccc(OC)cc2)[C@H]2c3cc(C(=O)N(C)C)n(Cc4ccc(C(F)(F)F)nc4)c3C[C@H]2CN1C(=O)c1ccccc1 | true |
| COc1ccc(CCNC(=O)[C@@]2(C)c3ccccc3C(=O)N(c3ccc(C)cn3)[C@H]2c2ccc(CO)cc2)cc1 | true |
| COc1ccc([Si](C)(C)[C@H]2[C@H](CCO)O[C@@]3(C(=O)N(Cc4ccccc4)c4ccc(N5CCCCC5=O)cc43)[C@@H]2C)cc1 | false |
| CC(=O)n1cc(C(O)C2C=CC3C(=O)NC(=O)C3N2Nc2ccccn2)c2ccccc21 (stereo not drawn) | false |
| C=C(CCCC)/C(=C/C[C@@H](OC(C)=O)c1ccccc1OCCO)c1cc(C(=O)OC)ccc1OC | false |
